Reference source: PubChem BioAssay AID540256

Test: qHTS for Inhibitors of binding or entry into cells for Lassa Virus; also: nearly all actives have a fitted effect of over 50% in size; also: potency is read from the fitted curve at half-maximal effect
Settings: Lassa virus pseudotype entry inhibition, cell reporter; series mostly up to 37.9 µM
The whole screen tested about 300,000 compounds, of which about 3,700 (1.2%) were called active. Another 20% or so got no clear call; they are omitted. Many of the other results were omitted from the sample, so actives are more common in it than they were.
RECORDED_METRIC: Potency

// below: answered compounds
COMPOUND	Potency
Cc1cc(C)cc(NC(=O)COc2coc(CN3CCN(c4ccccc4)CC3)cc2=O)c1	inactive
O=c1[nH]c(CCl)nc2cc(-c3ccc(Cl)cc3)sc12	10 µM (active)
O=c1[nH]c2c(c(=O)n1-c1ccccc1)CCO2	inactive
Cc1ccc(-c2nnc(-c3ccc(NC(=O)c4cccs4)cc3)o2)cc1	7.3 µM (active)
Cc1ccc(C(=O)Nc2ccc(NC(=O)c3cccs3)cc2)c(C)c1	inactive

Shift focus to the following entry.
q: Value lookup for Potency; key = N#C/C(=C\c1ccc(O)c(O)c1)C(=O)NCc1ccccc1
a: inactive

====

Assay: qHTS for Inhibitors of binding or entry into cells for Lassa Virus; also: nearly all actives have a fitted effect of over 50% in size
Details: Lassa virus pseudotype entry inhibition, cell reporter; series mostly up to 37.9 µM
The campaign covered roughly 300,000 compounds. About 3,700 (1.2%) were called active. About 20% were inconclusive and are not listed. Calls follow the shape of the full dose curve; tested in HEK293 cells. The sample holds actives, similar compounds and a random draw of the others, so the mix is not that of the screen.
Choose the fitting class; nothing outside active, inactive is accepted.

q: Which outcome was assigned to CC(=O)NC1(c2ccc(F)cc2)CCN(C(=O)c2c(F)cccc2F)CC1 in this test?
a: inactive

q: What outcome does the record of this test show for Cn1cc(C2OC(=O)c3ccccc32)c2ccccc21 (stereo not given) ?
a: inactive

q: Could you kindly confirm the outcome this assay logged for CC(=O)c1ccc(NC(=O)COc2ccccc2-c2nc(-c3ccccc3)no2)cc1 ?
a: inactive

q: Look up the recorded call for COC(=O)c1ccccc1NC(=O)c1ccc(COc2ccccc2Cl)o1 in this test.
a: inactive

q: Which result was noted for this molecule in the test: CC(C)c1cc(N=O)cc(C(C)C)c1O
a: inactive

q: Test call, this molecule: O=C(CC1SC(=Nc2ccccc2F)N(CCN2CCOCC2)C1=O)Nc1ccc(F)cc1F (stereo not given)
a: active

q: Kindly provide the recorded test outcome for the following molecule: Cc1cccn2c(=O)c(/C=C3\SC(=S)N(CC(C)C)C3=O)c(NCCCOC(C)C)nc12
a: inactive

q: Test call for this molecule, please: N#Cc1c(NC(=O)CSc2nc3ccccc3c(=O)n2Cc2ccco2)sc2c1CCCC2
a: inactive

q: For O=C(Nc1cccc(C(=O)NC2CC2)c1)c1ccc(F)c(S(=O)(=O)N2CCOCC2)c1 , what call appears in the results of this test?
a: inactive

q: Record request — test call for CCn1cc(C(=O)NCc2ccccc2)c(=O)c2cc(S(=O)(=O)N3CCCCC3)ccc21
a: inactive

q: I'd appreciate the recorded outcome for O=C(CN1CCN(c2ccccn2)CC1)N1CCc2ccccc21 from this test.
a: inactive

q: How was O=C(CN1CCN(C/C=C/c2ccccc2)CC1)Nc1ccc(F)cc1F classified in this test?
a: inactive

q: Hey, what did the test say about C=CCn1cc(C(=O)NCc2ccc(Cl)cc2)c(=O)c2cc(S(=O)(=O)N(CC)CC)ccc21 ?
a: active

q: Recorded test call requested for Cc1oc(-c2ccccc2)nc1Cn1c(SCc2cccc(C(F)(F)F)c2)nc2cccnc21
a: inactive

q: What was the test verdict on COc1ccc(-c2nc(-c3ccccc3)no2)c(OC)c1 ?
a: active

q: // return assay outcome for CC1=CC(C)(C)Nc2ccc(OC(=O)CN3C(=O)C4CCCCC4C3=O)cc21 (stereo not given)
a: inactive

q: Look up the recorded call for O=C(CN1C(=O)c2ccccc2S1(=O)=O)NC1CCCCC1 in this test.
a: inactive

q: Please let me know the test result on file for O=C(OC12CC3CC(CC(C3)C1)C2)c1ccc(NCc2cc(O)ccc2O)cc1 .
a: active

q: Query: recorded result category for Cc1cccc(N(C(=O)Cc2cccs2)C(C(=O)NCc2ccco2)c2ccncc2)c1 (stereo not given) in this test
a: inactive

q: Assay outcome for CCOc1ccc(CNC(=O)CCc2c(C)nn(-c3ccc(N4CCCCC4)nn3)c2C)cc1 : what was it?
a: inactive
